Numbers sourced from patent US8022079B2.

- TARGET: PPARα (Homo sapiens)
- Sequence (Q07869 200-468 limits assumed): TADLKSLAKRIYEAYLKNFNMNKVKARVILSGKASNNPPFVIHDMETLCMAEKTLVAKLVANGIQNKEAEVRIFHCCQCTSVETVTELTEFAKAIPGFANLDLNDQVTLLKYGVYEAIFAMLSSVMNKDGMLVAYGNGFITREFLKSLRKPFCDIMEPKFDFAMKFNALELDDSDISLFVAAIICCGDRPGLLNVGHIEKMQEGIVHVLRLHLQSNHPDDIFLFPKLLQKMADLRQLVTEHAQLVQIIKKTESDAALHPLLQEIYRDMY
pKd: −log10 of the molar value. Counter-ions that a name gives are not always drawn.
MEASURED METRIC: pKd

Which value of pKd has been reported for "CCCCCC(=O)N(C)Cc1cc(-c2ccc(C[C@H](Nc3ccccc3C(=O)c3ccccc3)C(=O)O)cc2)cs1" in the records?
5.70

(a) CCCCCCCNC(=O)N(C)c1cccc(-c2ccc(C[C@H](OCC)C(=O)O)cc2)n1 [Example 10, hydrochloride]
(b) CCCCCCCNC(=O)N(C)c1ncc(-c2ccc(C[C@H](OCC)C(=O)O)cc2)s1
Given a and b , report the one with the higher recorded pKd. Your answer should be the label attached to the chosen record.
a
